Molecular target: Glutamate NMDA receptor (Rattus norvegicus) (UniProt P35439+Q00959+Q00960+Q00961+Q62645+Q8VHN2+Q9R1M7)
Test: Depolarizing activity relative to that of L-Glutamate (L-Glu=1) tested against NMDA type receptor in the newborn rat spinal motoneurone
Type: protein-complex assay
metric name: Relative Potency Ratio

Example results:
1. O=C(O)[C@H]1NCCC[C@H]1C(=O)O | 10
2. O=C(O)[C@H]1CCN[C@H]1C(=O)O | 3
3. CN[C@H](CC(=O)O)C(=O)O | 50

P. O=C(O)[C@H]1NCC[C@H]1C(=O)O
Q. O=C(O)[C@H]1CCCN[C@@H]1C(=O)O (racemic)
INPUT: # min-compare on Relative Potency Ratio between P and Q Identify your pick by its label.
OUTPUT: P
